The origin of these recorded values is paper PMC8496750.

# target.system: mouse Oatp1a4 (Mus musculus, UniProt Q9EP96)
# Sequence (Q9EP96 whole entry): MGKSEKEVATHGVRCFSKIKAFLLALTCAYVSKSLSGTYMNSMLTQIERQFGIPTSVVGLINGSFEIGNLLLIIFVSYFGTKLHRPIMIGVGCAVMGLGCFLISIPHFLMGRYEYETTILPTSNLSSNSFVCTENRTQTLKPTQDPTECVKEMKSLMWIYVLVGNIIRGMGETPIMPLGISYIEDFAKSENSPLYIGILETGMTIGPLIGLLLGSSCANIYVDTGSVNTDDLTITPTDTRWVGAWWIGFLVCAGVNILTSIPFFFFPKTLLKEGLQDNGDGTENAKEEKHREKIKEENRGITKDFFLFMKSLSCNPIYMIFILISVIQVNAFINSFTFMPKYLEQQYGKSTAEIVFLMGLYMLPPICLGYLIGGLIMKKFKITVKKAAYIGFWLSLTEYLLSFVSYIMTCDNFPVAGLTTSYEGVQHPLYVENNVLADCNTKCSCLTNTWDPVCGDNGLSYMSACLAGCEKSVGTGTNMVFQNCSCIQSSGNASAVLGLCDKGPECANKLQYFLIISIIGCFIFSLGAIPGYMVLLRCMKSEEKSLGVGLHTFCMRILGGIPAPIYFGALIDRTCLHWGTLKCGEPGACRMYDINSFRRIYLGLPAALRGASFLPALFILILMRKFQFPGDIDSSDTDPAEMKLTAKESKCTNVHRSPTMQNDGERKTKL
# assay.explanation: in vitro
# test.context: 293FT cells transiently transfected with mouse Oatp1a4, probe radiolabeled S‐3100‐CA
measure.name: inhibition at 10 min, 10 µM

CO[C@H]1/C=C/O[C@@]2(C)Oc3c(C)c(O)c4c(O)c(c(/C=N/N5CCN(C)CC5)c(O)c4c3C2=O)NC(=O)/C(C)=C\C=C\[C@H](C)[C@H](O)[C@@H](C)[C@@H](O)[C@@H](C)[C@H](OC(C)=O)[C@@H]1C    > 50%
CO[C@H]1/C=C/O[C@@]2(C)Oc3c(C)c(O)c4c(O)c(cc(O)c4c3C2=O)NC(=O)/C(C)=C\C=C\[C@H](C)[C@H](O)[C@@H](C)[C@@H](O)[C@@H](C)[C@H](OC(C)=O)[C@@H]1C    > 50%

---

# assay.explanation: Metabolite analysis in plasma, liver, and kidney (TLC)
# Type: in vivo, Crl:CD1(ICR) mice
# test.context: Crl:CD1(ICR), mouse, plasma, oral; Male; 2 h after [^14C]Epyrifenacil 1 mg/kg p.o.; pooled samples; read-out: Metabolite concentration, Plasma
In this section, each of the compounds is paired with its reported concentration at 2 h.
measure.name: concentration at 2 h (ng/g)

CNC(=O)Nc1cc(Oc2cccnc2OCC(=O)O)c(Cl)cc1F    20
Cn1c(C(F)(F)F)cc(=O)n(-c2cc(Oc3ccc[nH]c3=O)c(Cl)cc2F)c1=O    3
Cn1c(C(F)(F)F)cc(=O)n(-c2cc(Oc3cccnc3OCC(=O)O)c(Cl)cc2F)c1=O    54

---

# assay.explanation: Metabolite analysis in plasma, liver, and kidney (TLC)
# Format: in vivo, Crl:CD1(ICR) mice
# test.context: male, Crl:CD1(ICR), mouse, in vivo, Male; 2 h after [^14C]Epyrifenacil 1 mg/kg p.o. + Digoxin 100 mg/kg i.p.; read-out: Metabolite concentration, Kidney
measure.name: concentration at 2 h (ng/g)

CN1C(=O)N(c2cc(Oc3cccnc3OCC(=O)O)c(Cl)cc2F)C(=O)CC1(O)C(F)(F)F (stereo not shown)    14

---

# assay.explanation: Metabolite analysis in plasma, liver, and kidney (TLC)
# Assay type: in vivo, Crl:CD1(ICR) mice
# test.context: Crl:CD1(ICR), mouse, plasma, oral; Female; 2 h after [^14C]Epyrifenacil 1 mg/kg p.o.; read-out: Metabolite concentration, Plasma
measure.name: concentration at 2 h (ng/g)

CNC(=O)Nc1cc(Oc2cccnc2OCC(=O)O)c(Cl)cc1F    55
Cn1c(C(F)(F)F)cc(=O)n(-c2cc(Oc3cccnc3OCC(=O)O)c(Cl)cc2F)c1=O    68
Cn1c(C(F)(F)F)cc(=O)n(-c2cc(Oc3ccc[nH]c3=O)c(Cl)cc2F)c1=O    15

---

# assay.explanation: Metabolite analysis in plasma, liver, and kidney (TLC)
# Format: in vivo, Crl:CD1(ICR) mice
# test.context: Crl:CD1(ICR), mouse, kidney, oral, with rifampicin (OATP inhibitor) 200 mg/kg p.o.; Male; 2 h after [^14C]Epyrifenacil 1 mg/kg p.o. + Rifampicin 200 mg/kg p.o.; read-out: Metabolite concentration, Kidney
measure.name: concentration at 2 h (ng/g)

Cn1c(C(F)(F)F)cc(=O)n(-c2cc(Oc3ccc[nH]c3=O)c(Cl)cc2F)c1=O    1
Cn1c(C(F)(F)F)cc(=O)n(-c2cc(Oc3cccnc3OCC(=O)O)c(Cl)cc2F)c1=O    73
CNC(=O)Nc1cc(Oc2cccnc2OCC(=O)O)c(Cl)cc1F    1
